// values below are reported GI50
System: HS 578T breast
Assay: NCI tumour cell line growth inhibition, 48 h
measurement.name: GI50

compound	measurement.target	observed.measurement
CCN1CCN(c2ccc(NC(=O)Nc3ccc(-c4cc(C(=O)NC)c5ncccc5n4)cc3)cc2C(F)(F)F)CC1	HS 578T breast	2.39 µM
CC[C@]12C=CCN3CC[C@@]4(c5ccc(OC)cc5N(C)[C@H]4[C@@](O)(C(=O)OC)[C@@H]1OC(=O)CCC[P+](c1ccc(F)cc1)(c1ccc(F)cc1)c1ccc(F)cc1)[C@@H]32	HS 578T breast	11.8 µM
C=C1CCC2C3(C)COC(c4ccco4)OC3CCC2(C)C1CC(Sc1ccccc1)C1=CCOC1=O (centres undefined)	HS 578T breast	35.7 µM
NS(=O)(=O)c1ccc(N2N=C(c3ccc(NC(=O)Nc4ccccc4)cc3)CC2c2ccc(Br)cc2)cc1 (centres undefined)	HS 578T breast	2.52 µM

====

System: OVCAR-4 ovarian
Assay: NCI tumour cell line growth inhibition, 48 h

compound	measurement.target	GI50
NS(=O)(=O)c1ccc(N2N=C(c3ccc(NC(=O)Nc4ccccc4)cc3)CC2c2ccc(Br)cc2)cc1 (centres undefined)	OVCAR-4 ovarian	2.55 µM
CN(C)c1nc(NCCNS(=O)(=O)c2ccc(C(=O)/C=C/c3ccc(Cl)cc3)cc2)nc(N2CCOCC2)n1	OVCAR-4 ovarian	14.7 µM
C/C(=C\CC/C=C(\C)CC/C=C(\C)CC[C@@H](O)C(C)(C)O)CC/C=C(\C)CC[C@@H](O)C(C)(C)O	OVCAR-4 ovarian	11 µM
CC[C@]12C=CCN3CC[C@@]4(c5ccc(OC)cc5N(C)[C@H]4[C@@](O)(C(=O)OC)[C@@H]1OC(=O)CCC[P+](c1ccc(F)cc1)(c1ccc(F)cc1)c1ccc(F)cc1)[C@@H]32	OVCAR-4 ovarian	16.2 µM

====

Reported values of TGI for individual entries
Tested on: IGROV1 ovarian
Experiment: NCI tumour cell line growth inhibition, 48 h

molecule	measurement.target	readout.relation	TGI (µM)
CC[C@]12C=CCN3CC[C@@]4(c5ccc(OC)cc5N(C)[C@H]4[C@@](O)(C(=O)OC)[C@@H]1OC(=O)CCC[P+](c1ccc(F)cc1)(c1ccc(F)cc1)c1ccc(F)cc1)[C@@H]32	IGROV1 ovarian	=	18.2
NS(=O)(=O)c1ccc(N2N=C(c3ccc(NC(=O)Nc4ccccc4)cc3)CC2c2ccc(Br)cc2)cc1 (centres undefined)	IGROV1 ovarian	=	10.6
C=C1CCC2C3(C)COC(c4ccco4)OC3CCC2(C)C1CC(Sc1ccccc1)C1=CCOC1=O (centres undefined)	IGROV1 ovarian	>	100
C/C(=C\CC/C=C(\C)CC/C=C(\C)CC[C@@H](O)C(C)(C)O)CC/C=C(\C)CC[C@@H](O)C(C)(C)O	IGROV1 ovarian	=	29.2

====

System: RPMI-8226 leukemia
Assay: NCI tumour cell line growth inhibition, 48 h
# TGI per record follows

molecule	unit	TGI
C/C(=C\CC/C=C(\C)CC/C=C(\C)CC[C@@H](O)C(C)(C)O)CC/C=C(\C)CC[C@@H](O)C(C)(C)O	µM	18.9
CC[C@]12C=CCN3CC[C@@]4(c5ccc(OC)cc5N(C)[C@H]4[C@@](O)(C(=O)OC)[C@@H]1OC(=O)CCC[P+](c1ccc(F)cc1)(c1ccc(F)cc1)c1ccc(F)cc1)[C@@H]32	µM	9.33
NS(=O)(=O)c1ccc(N2N=C(c3ccc(NC(=O)Nc4ccccc4)cc3)CC2c2ccc(Br)cc2)cc1 (centres undefined)	µM	5.26
C=C1CCC2C3(C)COC(c4ccco4)OC3CCC2(C)C1CC(Sc1ccccc1)C1=CCOC1=O (centres undefined)	µM	8.23
